Values were extracted from patent US20230023559A1.

target: Kv1.3 potassium channel (Homo sapiens, UniProt P22001); assay: Kv1.3 potassium channel blocker activity, automated whole-cell patch clamp (Patchliner); settings: CHO-K1 cells stably expressing Kv1.3; whole cell current inhibition; read-out: Kv1.3_IC50
Sequence (P22001 whole entry): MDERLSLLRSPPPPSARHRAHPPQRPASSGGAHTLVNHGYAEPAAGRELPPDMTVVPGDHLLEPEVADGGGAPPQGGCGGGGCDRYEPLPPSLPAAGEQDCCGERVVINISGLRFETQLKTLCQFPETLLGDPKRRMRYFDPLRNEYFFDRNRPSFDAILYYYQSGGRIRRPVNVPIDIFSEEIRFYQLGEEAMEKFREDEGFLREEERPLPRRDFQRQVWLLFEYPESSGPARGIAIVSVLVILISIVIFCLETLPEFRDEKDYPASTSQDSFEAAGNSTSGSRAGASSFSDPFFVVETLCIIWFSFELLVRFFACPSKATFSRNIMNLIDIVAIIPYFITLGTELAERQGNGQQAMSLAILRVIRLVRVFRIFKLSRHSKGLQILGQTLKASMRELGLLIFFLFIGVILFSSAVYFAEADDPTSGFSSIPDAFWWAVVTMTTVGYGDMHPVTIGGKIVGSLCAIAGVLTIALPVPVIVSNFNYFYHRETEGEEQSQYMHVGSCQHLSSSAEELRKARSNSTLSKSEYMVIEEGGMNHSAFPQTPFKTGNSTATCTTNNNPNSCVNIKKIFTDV
pIC50: −log10 of the molar value.
outcome measure: pIC50

Please review the following examples before continuing.
{"columns": ["molecule", "pIC50"],
 "data": [
  ["N[C@@H](c1cc(Cl)c(Cl)cc1O)C1CCN(C(=O)c2cnc(=O)[nH]c2)CC1", "> 6.30"],
  ["CC(C)C(=O)N1CCC(C(N)c2cc(Cl)c(Cl)cc2O)CC1 (stereo not shown)", "> 5.00"],
  ["Nc1cc(C(=O)N2CCC([C@@H](N)c3cc(Cl)c(Cl)cc3O)CC2)ccn1", "> 6.30"],
  ["N[C@@H](c1cc(Cl)c(Cl)cc1O)C1CCN(C(=O)[C@@H]2CNC(=O)OC2)CC1 (single isomer, unassigned; isomer 2)", "> 6.30"],
  ["Nc1cccc(N2CCC([C@@H](N)c3cc(Cl)c(Cl)cc3O)CC2)n1", "> 5.00"],
  ["Cc1cc(O)c([C@H](N)C2CCN(C(=O)c3ccc4c(c3)NC(=O)CC4)CC2)cc1Cl", "> 5.00"]
]}

Challenge: Notebook entry, Kv1.3 potassium channel (Homo sapiens, UniProt P22001) assay: pIC50 of CN1C(=O)CC[C@H]1C(=O)N1CCC([C@@H](N)c2cc(Cl)c(Cl)cc2O)CC1 = ?
Response given: > 6.30

Challenge: Checklist item: pIC50 tested on Kv1.3 potassium channel (Homo sapiens, UniProt P22001), entry O=C([C@@H]1CCNC1)N1CCC(Cc2c(O)ccc(Cl)c2Cl)CC1 , value?
Response given: > 6.30

Challenge: Tell me reported pIC50 for N[C@@H](c1cc(Cl)c(Cl)cc1O)C1CCN(C(=O)C23CC(O)(C2)C3)CC1 , tested with Kv1.3 potassium channel (Homo sapiens, UniProt P22001).
Response given: > 5.00

Challenge: Fill in the recorded pIC50 for this molecule, with Kv1.3 potassium channel (Homo sapiens, UniProt P22001) as test system: N[C@@H](c1c(O)cc(Cl)c(Cl)c1Cl)C1CCN(C(=O)[C@H](O)CO)CC1
Response given: > 5.00

Challenge: Form field: pIC50 recorded for C[C@](O)(CO)C(=O)N1CCC([C@@H](N)c2cc(Cl)c(Cl)cc2O)CC1 (single isomer, unassigned; isomer 2) with Kv1.3 potassium channel (Homo sapiens, UniProt P22001) (enter value)
Response given: > 5.00

Challenge: Fill in the recorded pIC50 for this molecule, with Kv1.3 potassium channel (Homo sapiens, UniProt P22001) as test system: C[C@@H](O)[C@H](O)C(=O)N1CCC([C@@H](N)c2cc(Cl)c(Cl)cc2O)CC1
Response given: > 6.30
